These entries and their values trace back to PubChem BioAssay (NCI).

Tested on: MALME-3M melanoma
Test: NCI tumour cell line growth inhibition, 48 h
Please mark true (1) if the recorded TGI is equal to or greater than 5 µM, and false (0) if it falls below.

{"compound": "CCCCOc1ccc(/C=N/Nc2cc(C)nc3ccc(Br)cc23)cc1", "category": "false (0)"}
{"compound": "O=C(Nc1ccc(Cl)cc1C(=O)O)c1ccc([N+](=O)[O-])cc1", "category": "true (1)"}
{"compound": "CO[C@]12S[C@@H]3CCCC[C@@]31C(C)(C)C(=O)N2c1ccccc1", "category": "true (1)"}
{"compound": "COc1ccccc1[As]=[As]c1ccccc1OC (stereo unspecified)", "category": "false (0)"}
{"compound": "NC(CCP(=O)(O)O)C(=O)O (stereo unspecified)", "category": "true (1)"}
{"compound": "C=CCOCCC(CC=C)C(=O)CC(=O)OC (stereo unspecified)", "category": "true (1)"}
{"compound": "NC(Cc1c[nH]c2ccc([N+](=O)[O-])cc12)C(=O)O (stereo unspecified)", "category": "true (1)"}
{"compound": "Nc1cccc(OCC2CCCN3CCCCC23)c1 (stereo unspecified)", "category": "true (1)"}
{"compound": "COc1ccc2c(O)c(/C=C3\\N=Nc4ncccc43)oc2c1C[C@@H]1CCNC[C@H]1F", "category": "true (1)"}
{"compound": "COC(=O)Cc1c([C@H]2[C@H](CC(=O)OC)c3ccccc3N2S(=O)(=O)c2ccc(C)cc2)[nH]c2ccccc12", "category": "true (1)"}
{"compound": "c1ccc(Cn2c(-c3ccc(-c4ccccc4)cc3)cc3ccccc32)cc1", "category": "true (1)"}
